# target.desc: UniProt P35372
# assay.explanation: Competitive radioligand binding at MOR ([3H] Naloxone)
# condition.label: membranes from CHO-K1 cells expressing MOR; 2 nM [3H] Naloxone; reflects free base activity; read-out: MOR IC50
pIC50: −log10 of the molar value.
measured.endpoint: pIC50

Worked set:
CN1CC[C@]23CCCC[C@H]2[C@H]1Cc1cc2sc(N)nc2cc13 = 7.00 to 8.00
COCCOCCN1CC[C@]23CCCC[C@H]2[C@H]1Cc1ccc(N)cc13 = < 6.00
COCCOCCN1CC[C@]23CCCC[C@H]2[C@H]1Cc1ccc(OC)cc13 = < 6.00

Attention now turns to another entry.
Name the reported pIC50 value associated with the compound COCCOCCOCCO[C@H]1CC[C@H]2[C@H]3Cc4ccc(OC)cc4[C@@]2(CCN3C)C1
< 6.00
